B1: tRNA (parent)
chain: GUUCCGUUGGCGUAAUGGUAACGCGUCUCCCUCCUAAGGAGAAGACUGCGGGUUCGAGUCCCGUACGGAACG

Variants of: B1
Experiment: yeast fitness relative to wild type (ratio to wild type); higher = fitter; tRNA-Arg(CCU), competitive growth, 37 C, YPD
Variants at the floor of the assay were thinned out.
Measurement type: yeast fitness

INSERT INTO results (biosequence, measurement_type, observed) VALUES
  ('GUUCCGUUGGAGUAAUGGUAACCCGUCUCCCGCAUAAGGAGAAGACUGCGGGUUCGAGUCCCGUACGGAACG [C11A G23C U32G C34A]', 'yeast fitness', '≤ 0.5'),
  ('GUUUCGUUGGCGUAAUGGUAACGCGUCUCCCUCCUAAGGAGAAGACAGCGCGUUCGAGUCCCGUACGGAUCG [C4U U47A G51C A70U]', 'yeast fitness', '≤ 0.5'),
  ('GUUCCGUUGGCGUAACGGUAACGCAUAUUCCUCCUAAGGAGAAAACUGCGGGUUAGAGUCCCGUACGGAACG [U16C G25A C27A C29U G44A C55A]', 'yeast fitness', '≤ 0.5'),
  ('GUUACGGUGGCGUAAUGGUAACGCGUUUCCCUCCUAAGGAGAAGCCUGCGGGUUCGAGUCCCGUACGGAACG [C4A U7G C27U A45C]', 'yeast fitness', '≤ 0.5'),
  ('GUUCCGUUGGCGAAAAGGUAACGCGUCUCCCUCCUAAGGAGACGACUGCGGGUUCGAGUCCCGUACGGAACG [U13A U16A A43C]', 'yeast fitness', 0.564),
  ('GUGCCGUUGGCGUAAUGGUAACGCGUCUCCCUCCUAAGGAGAAGACUGCGGGUUCGAGUCCGGUACGGAACG [U3G C62G]', 'yeast fitness', 0.739),
  ('GUUCCGUUGGCGUAAUGGUAACGCGUUGCCCUCCUAAGGCGAAGACUGCGGGUUGGAGUCCCGUACGGACCG [C27U U28G A40C C55G A70C]', 'yeast fitness', '≤ 0.5'),
  ('GUUCCGUUGGAGCAAUGGUAACGCGUAUCCCUCCUAAGGAGAAGACUGCGGGUUCGAGUACCGUACGGAACG [C11A U13C C27A C60A]', 'yeast fitness', '≤ 0.5'),
  ('GAUCCGUUGGCGUAAUGGUAACGCGUCUCCCUCCUAAGGGGAUGCCUGCGGGUUCGGGUCCCGUCCGGAACG [U2A A40G A43U A45C A57G A65C]', 'yeast fitness', '≤ 0.5'),
  ('GUUCCGUUGGCGUAAUGGUGACGUGUCUCCCUCCUAAGGAGAAGACUGGAGGUUCGAGUCCCGUACGGAACG [A20G C24U C49G G50A]', 'yeast fitness', '≤ 0.5'),
  ('GUUUCGUUGGUGUAAUGGUAAGGCGUCUCCCUCCUAAGGAGAAGACUGCGGGUUCGAGUCCCGUACGGAACG [C4U C11U C22G]', 'yeast fitness', 0.629);
